Biological target: furin, P09958;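 note: purified furin at 1:10 enzyme:substrate in 50 mM HEPES pH 7.5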
Sequence (P09958 whole entry): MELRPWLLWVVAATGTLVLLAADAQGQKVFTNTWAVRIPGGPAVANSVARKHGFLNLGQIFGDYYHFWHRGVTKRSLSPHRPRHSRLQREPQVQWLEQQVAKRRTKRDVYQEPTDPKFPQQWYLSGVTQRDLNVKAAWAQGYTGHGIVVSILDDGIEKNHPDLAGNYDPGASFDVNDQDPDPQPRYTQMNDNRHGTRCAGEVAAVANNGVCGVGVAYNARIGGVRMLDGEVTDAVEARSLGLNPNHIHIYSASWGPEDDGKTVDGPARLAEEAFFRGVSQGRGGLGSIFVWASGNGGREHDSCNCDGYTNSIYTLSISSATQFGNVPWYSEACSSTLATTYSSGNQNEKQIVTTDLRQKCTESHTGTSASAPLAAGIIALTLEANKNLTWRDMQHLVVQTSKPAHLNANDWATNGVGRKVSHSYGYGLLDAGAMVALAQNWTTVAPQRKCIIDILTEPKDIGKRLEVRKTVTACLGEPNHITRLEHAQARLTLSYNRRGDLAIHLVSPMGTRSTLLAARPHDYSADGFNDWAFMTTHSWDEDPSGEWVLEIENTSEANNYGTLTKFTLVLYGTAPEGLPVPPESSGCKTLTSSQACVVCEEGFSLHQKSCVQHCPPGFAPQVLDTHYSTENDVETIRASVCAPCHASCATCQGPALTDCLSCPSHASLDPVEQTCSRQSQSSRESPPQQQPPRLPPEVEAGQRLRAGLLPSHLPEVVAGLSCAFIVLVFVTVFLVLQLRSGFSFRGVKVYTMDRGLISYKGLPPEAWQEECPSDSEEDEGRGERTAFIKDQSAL
Experiment: furin cleavage Z-score vs untreated control; higher = more cleavage, active = 3.5 or more, inactive = 1 or less, 8 variable residues between constant flanks
Conditions: 30 min
The list shows a part of the results. How many sequences the whole screen found active is unknown.
readout_label: furin cleavage Z-score
Just the number, please.

Please review the following examples before continuing.
{"residues": "CANCTTPCSGAGNASASA [HC1961]", "furin cleavage Z-score": 1.28}
{"residues": "CASCGGVVLVAGNASASA [HC569]", "furin cleavage Z-score": -1.42}
{"residues": "CAEGTTPCSGAGNASASA [HC1976]", "furin cleavage Z-score": -0.263}

Here is the next item to consider.
Fill in the blank: the reported furin cleavage Z-score of CALDLSGWFTAGNASASA [HC1643] is ____.
-0.793
